system: A549/ATCC NSCLC; assay: NCI-60 one-dose screen, 48 h; settings: 10 µM unless noted
This is part of a sample that, as a whole, favours compounds with a hit. Of some 83,000 tested, about 20% had one in any assay. Activity calls are given as the source filed them. The calls were made as follows: active = growth percent below 10; inactive = the rest.
Entry note: the call must match one of t (active), f (inactive)

input: Per the records of this test, what outcome belongs to `FC(F)(F)c1cccc(Oc2ccc(Nc3ncnc4ccc(OCCCN5CCOCC5)cc34)cc2Cl)c1` ?
output: f

input: Per the records of this test, what outcome belongs to `Cc1ccc2[nH]c(=O)cc(-n3nncc3COc3ccc(C=O)cc3)c2c1` ?
output: f

input: Per the records of this test, what outcome belongs to COc1ccc(C(O)c2cc3c(N)c(C(=O)Nc4ccc(Cl)cc4)sc3nc2C)cc1 (stereo not drawn) ?
output: f

input: Per the records of this test, what outcome belongs to `CC(=O)OCCCCCNc1ccccc1` ?
output: f

input: Per the records of this test, what outcome belongs to `CS(=O)(=O)c1ccc(-c2cc(-c3nnc(SCC(=O)Nc4ccc(C(=O)/C=C/c5ccc(Cl)cc5)cc4)n3-c3ccccc3)c3ccccc3n2)cc1` ?
output: f

input: Per the records of this test, what outcome belongs to `COc1ccc(-c2nc(SC)nc(N3CCOCC3)c2C#N)cc1` ?
output: f

input: Per the records of this test, what outcome belongs to `CCNC(=O)c1[nH]cc(-c2ccc(OC)cc2)c1-c1cc(OC)c(OC)c(OC)c1` ?
output: f

input: Per the records of this test, what outcome belongs to `O=C(Nc1cccc(Cl)c1)Oc1c(Br)c(Br)c(Br)c(Br)c1Br` ?
output: f

input: Per the records of this test, what outcome belongs to `COc1ccc(C(=O)c2cc3c(N)c(C(=O)Nc4cccc(Cl)c4C)sc3nc2C)cc1` ?
output: f

input: Per the records of this test, what outcome belongs to `COc1ccc(C(=O)/C=C/c2c(OC)cc(OC)cc2OC)c(OC)c1` ?
output: f

input: Per the records of this test, what outcome belongs to COc1ccc(C2CC(c3cccc(Nc4ccncc4)c3)=NN2c2ccc(Cl)cc2)cc1 (stereo not drawn) ?
output: f

input: Per the records of this test, what outcome belongs to `Cc1ccc(Nc2cc(=S)nc(N)[nH]2)cc1C` ?
output: f

input: Per the records of this test, what outcome belongs to `CCOC(=O)N1CCN(CCCCl)CC1` ?
output: f

input: Per the records of this test, what outcome belongs to `CC(C)(C)OC(=O)N1CCN(c2ccc(N)cc2)C(=O)C1` ?
output: f

input: Per the records of this test, what outcome belongs to CC(=O)N1c2ccccc2NC2=C(C(=O)N(Cc3ccccc3)C2(C)C)C1c1ccco1 (stereo not drawn) ?
output: f

input: Per the records of this test, what outcome belongs to `Cn1c(COC(=O)N2CCCCC2)nc2c(N3CCOCC3)nc(-c3ccccc3)nc21` ?
output: t

input: Per the records of this test, what outcome belongs to `O=S(=O)(NCCNc1nccc(-c2c(-c3ccc(F)c(O)c3)nc3sccn23)n1)c1ccccc1` ?
output: f

input: Per the records of this test, what outcome belongs to CC1=NNC(=O)C1CCC(=O)N/N=C(\C)c1ccc2ccccc2c1 (stereo not drawn) ?
output: f

input: Per the records of this test, what outcome belongs to `O=C(O)C(/C=C/c1ccco1)=N\Nc1nc(-c2ccc(Cl)cc2)cs1` ?
output: f

input: Per the records of this test, what outcome belongs to `COc1ccc(-c2cnnc3c(-c4cccc(C(F)(F)F)c4)cnn23)cc1` ?
output: f

input: Per the records of this test, what outcome belongs to COc1ccc(C2CC(c3cccc(Nc4ccncc4)c3)=NN2c2ccccc2)cc1 (stereo not drawn) ?
output: f

input: Per the records of this test, what outcome belongs to `Cc1cc(Nc2cccc(C(F)(F)F)c2)n2c(nc3ccccc32)c1C#N` ?
output: f

input: Per the records of this test, what outcome belongs to `COc1cc2nc(-c3ccc(C(F)(F)F)cc3)cc(OCCN3CCCC3)c2cc1OC` ?
output: f
